test: Cytotoxicity evaluation, CellTiter-Blue Cell Viability Assay; assay type: cell-based; settings: human, Zluc cells (HCV replicon cells)
Assay endpoint: CC50 at 72 h

Example cases with answers are listed next.
[
  {
    "Compound": "CCCC(=O)OCC(C)(C)C(=O)SCCOP(=O)(NCc1ccccc1)OCC1O[C@@H](n2cnc3c(=O)[nH]c(N)nc32)[C@](C)(O)[C@@H]1O (some centres unmarked)",
    "CC50 at 72 h": "≤ 50 µM"
  },
  {
    "Compound": "CCOc1nc(N)nc2c1ncn2[C@@H]1OC(COP(=O)(NCc2ccccc2)OCCSC(=O)C(C)(C)COC(=O)C(C)C)[C@@H](O)[C@@]1(C)F (some centres unmarked)",
    "CC50 at 72 h": "≤ 50 µM"
  },
  {
    "Compound": "CCCCCC(=O)OCC(C)(C)C(=O)SCCOP(=O)(NCc1ccccc1)OC[C@H]1O[C@@H](n2cnc3c(OCC)nc(N)nc32)[C@](C)(F)[C@@H]1O (single isomer, unassigned) [Compound 103 Diastereomer 1]",
    "CC50 at 72 h": "> 50 µM"
  },
  {
    "Compound": "CCOc1nc(N)nc2c1ncn2[C@@H]1O[C@H](COP(=O)(NCc2ccccc2)OCCSC(=O)C(C)(C)C(=O)OC(C)C)[C@@H](O)[C@@]1(C)F (single isomer, unassigned) [Compound 105 Diastereomer 1]",
    "CC50 at 72 h": "> 50 µM"
  },
  {
    "Compound": "CCOc1nc(N)nc2c1ncn2[C@@H]1O[C@H](COP(=O)(NCc2ccccc2)OCCSC(=O)C(C)(C)COC(C)=O)[C@@H](O)[C@@]1(C)F (single isomer, unassigned) [Compound 101 Diastereomer 1]",
    "CC50 at 72 h": "≤ 50 µM"
  }
]

// each compound listed below needs its CC50 at 72 h
1. CCOc1nc(N)nc2c1ncn2[C@@H]1O[C@H](COP(=O)(NCc2ccccc2)OCCSC(=O)C(C)(C)C(=O)OC(C)C)[C@@H](O)[C@@]1(C)F (some centres unmarked) [Compound 105]
2. CCCC(=O)OCC(C)(C)C(=O)SCCOP(=O)(NCc1ccccc1)OC[C@H]1O[C@@H](n2cnc3c(OCC)nc(N)nc32)[C@](C)(F)[C@@H]1O (some centres unmarked)
3. CCCCCC(=O)OCC(C)(C)C(=O)SCCOP(=O)(NCc1ccccc1)OCC1O[C@@H](n2cnc3c(=O)[nH]c(N)nc32)[C@](C)(O)[C@@H]1O (some centres unmarked)
4. CC(=O)OCC(C)(C)C(=O)SCCOP(=O)(NCc1ccccc1)OCC1O[C@@H](n2cnc3c(=O)[nH]c(N)nc32)[C@](C)(O)[C@@H]1O (some centres unmarked)
5. CCCCCC(=O)OCC(C)(C)C(=O)SCCOP(=O)(NCc1ccccc1)OC[C@H]1O[C@@H](n2cnc3c(OCC)nc(N)nc32)[C@](C)(F)[C@@H]1O (some centres unmarked) [Compound 103]
6. CCOc1nc(N)nc2c1ncn2[C@@H]1O[C@H](COP(=O)(NCc2ccccc2)OCCSC(=O)C(C)(C)COC(C)=O)[C@@H](O)[C@@]1(C)F (some centres unmarked) [Compound 101]

1. > 50 µM
2. ≤ 50 µM
3. ≤ 50 µM
4. ≤ 50 µM
5. > 50 µM
6. ≤ 50 µM

Sourced from patent US9192621B2
